Listed here: items and their measured Ki.
targetOrSystem: UniProt P37288
Sequence (P37288 whole entry): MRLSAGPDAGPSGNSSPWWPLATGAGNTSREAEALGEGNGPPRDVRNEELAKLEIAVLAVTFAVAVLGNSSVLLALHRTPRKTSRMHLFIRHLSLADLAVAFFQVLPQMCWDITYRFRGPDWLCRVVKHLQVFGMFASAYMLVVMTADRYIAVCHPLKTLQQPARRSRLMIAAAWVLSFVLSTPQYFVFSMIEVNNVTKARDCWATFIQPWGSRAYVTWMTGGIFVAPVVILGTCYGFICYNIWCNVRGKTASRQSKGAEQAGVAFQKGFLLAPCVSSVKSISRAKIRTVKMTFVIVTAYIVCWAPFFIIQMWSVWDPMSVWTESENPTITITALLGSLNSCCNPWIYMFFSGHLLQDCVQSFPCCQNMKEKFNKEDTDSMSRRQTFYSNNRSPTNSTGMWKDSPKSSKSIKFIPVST
runDescription: Displacement of [Se-Se]-AVP from human V1A receptor expressed in CHO cells after 4 hrs by RP-LC-ICPMS analysis
Format: cell-based
Please report the result as a number followed by the unit.

Reference set, count: 3
N=C(N)NCCC[C@H](NC(=O)[C@@H]1CCCN1C(=O)[C@@H]1C[Se][Se]C[C@H](N)C(=O)N[C@@H](Cc2ccc(O)cc2)C(=O)N[C@@H](Cc2ccccc2)C(=O)N[C@@H](CCC(N)=O)C(=O)N[C@@H](CC(N)=O)C(=O)N1)C(=O)NCC(N)=O 1.7 nM
CCOc1ccc2c(c1)[C@]1(CC[C@H](OCCN3CCOCC3)CC1)C(=O)N2S(=O)(=O)c1ccc(C(=O)NC(C)(C)C)cc1OC 2950 nM
COc1ccc(C[C@@H](NC(=O)CCc2ccc(O)cc2)C(=O)N[C@@H](Cc2ccccc2)C(=O)N[C@@H](CCC(N)=O)C(=O)N[C@@H](CC(N)=O)C(=O)N[C@@H](CCCNC(=N)N)C(=O)N2CCC[C@H]2C(=O)N[C@@H](CCCNC(=N)N)C(N)=O)cc1 0.2 nM

Kindly review the next compound as well.
# Ki (compound: `COc1ccc(C[C@@H](NC(=O)CCc2ccc(O)cc2)C(=O)N[C@@H](Cc2ccccc2)C(=O)N[C@@H](CCC(N)=O)C(=O)N[C@@H](CC(N)=O)C(=O)N[C@@H](CCCNC(=N)N)C(=O)N2C[Se]C[C@H]2C(=O)N[C@@H](CCCNC(=N)N)C(N)=O)cc1` ) is 0.4 nM
